Molecular target: Human His-tagged RBP4 (residues 19-201), soluble (human, UniProt P02753 19-201)
Assay: yeast surface display, flow cytometry: soluble His-tagged RBP4 titrated on yeast displaying the binder, anti-penta-His detection, with 5 µM A1120; mean of three
Source text: "a" can be part of a soluble protein (secreted or exogenously added) or of a transmembrane construct and "c" can be part of a signal transducing construct (shown in A and B). Of course, "a" and "c" can be integrated in the constructs vice versa (not shown). There are many more possible arrangements (not shown). […] RBP4-binding was detected with an anti-penta-His antibody and subsequently analyzed by flow cytometry.
// Kd lookup, one value per entry
measured_parameter: Kd (nM)

binder="RF1, FN3-based lipocalin-fold binding interaction partner, displayed on the surface of yeast (designed binder, not shown: Yeast-display carrier of the pCTCON2 construct (Aga2p anchor, HA tag, linker, c-myc tag)) VSDVPRDLEVVAATPTSLLISWYYPNASHAGYYRVTYGETGGNSPVQEFTVPFSIRYTIATISGLKPGVDHTITVYAVTDYAYYYRSSEPISINYRTEIDKPSQ" measured_parameter=Kd numeric_value=169
binder="RS1, rcSso7d-based lipocalin-fold binding interaction partner, displayed on the surface of yeast (designed binder, not shown: Yeast display carrier of pCTCON2 (Aga2p, HA tag, linker, C-terminal c-myc tag)) ATVKFTYQGEEEQVDISKIKKVARYGQNIYFSYDEGGGAWDYGGVSEKDAPKELLQMLEKQ" measured_parameter=Kd numeric_value=1.5
binder="RS4, rcSso7d-based lipocalin-fold binding interaction partner, displayed on the surface of yeast (designed binder, not shown: Yeast display carrier of pCTCON2 (Aga2p, HA tag, linker, C-terminal c-myc tag)) ATAKFTYQGEEKQVDISKIKRVARYGQGIYFSYDEGGGAYGYGSVSEKDAPKELLQMLEKQ" measured_parameter=Kd numeric_value=47.6
binder="RS2, rcSso7d-based lipocalin-fold binding interaction partner, displayed on the surface of yeast (designed binder, not shown: Yeast display carrier of pCTCON2 (Aga2p, HA tag, linker, C-terminal c-myc tag)) ATVKLTYQGEEKQVDISKIKRVARYGQGIYFDYGEGGGAWGYGSVSEKDAPKELLQMLEKQ" measured_parameter=Kd numeric_value=2.9
binder="RS3, rcSso7d-based lipocalin-fold binding interaction partner, displayed on the surface of yeast (designed binder, not shown: Yeast display carrier of pCTCON2 (Aga2p, HA tag, linker, C-terminal c-myc tag)) ATVKLTYQGEEKQVDISKIKRVARYGQNIYFSYDEGGGAYDYGAVSEKDAPKELLQMLEKQ" measured_parameter=Kd numeric_value=11.5
